System: LXRa homodimer (NR concentration 270 nM)
Assay: PBM binding z-score (relative to random genomic background probes); higher = stronger binding; sequences stand for … in GC…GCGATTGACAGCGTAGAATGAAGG
Please mark yes (1) if the recorded PBM binding z-score is equal to or greater than 0.05, and no (0) if it falls below.

Hello, I need to know if `TCTATTAGTTGATTAGGGCAACCAAAACAGCGGA` has measured PBM binding z-score not below 0.05. Thanks!
yes (1)

Hello, I need to know if `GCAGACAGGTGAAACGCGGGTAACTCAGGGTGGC` has measured PBM binding z-score not below 0.05. Thanks!
no (0)

Hello, I need to know if `TCATATAGGTAAATGCTAGGTGATAGTCCGATCT` has measured PBM binding z-score not below 0.05. Thanks!
no (0)

Hello, I need to know if `AATACAGGGTCATCGTAGGCCAGAGAACGCACAG` has measured PBM binding z-score not below 0.05. Thanks!
yes (1)

Hello, I need to know if `ATACCAAGGTGATCGTGAGGTCGTTGATACTAAC` has measured PBM binding z-score not below 0.05. Thanks!
yes (1)

Hello, I need to know if `CAGCCTAGGTAAGGGCCAGTATAGGAGGAACGTT` has measured PBM binding z-score not below 0.05. Thanks!
no (0)

Hello, I need to know if `CCTTACGGGTCACGAGGTTATAGCACGACGAGCG` has measured PBM binding z-score not below 0.05. Thanks!
yes (1)

Hello, I need to know if `ATAAGTAGGTTATCGGGTCATTCAGTTTGCGCAT` has measured PBM binding z-score not below 0.05. Thanks!
yes (1)

Hello, I need to know if `ACTCGGAGGACAAAGGTCAGAGCTACGCCAGTGA` has measured PBM binding z-score not below 0.05. Thanks!
yes (1)

Hello, I need to know if `CGAACGAGGGCATGAGTAGATAGCAAATGCCGAT` has measured PBM binding z-score not below 0.05. Thanks!
no (0)

Hello, I need to know if `CCTACTGGGCCAAGGTCATTGAACAGTCAAAGCA` has measured PBM binding z-score not below 0.05. Thanks!
yes (1)

Hello, I need to know if `GCGACTGGGGCAAAGCAGGTTACCATGAGGTTGG` has measured PBM binding z-score not below 0.05. Thanks!
no (0)

Hello, I need to know if `TGCATGAGGTTATAAGATCAGGGAACGTTGCAAA` has measured PBM binding z-score not below 0.05. Thanks!
no (0)
